Listed below: melting point values for each entry.

See these solved cases before continuing.
Compound	melting point
COc1cc(-c2ccc(C#N)cc2)cc(C=O)c1O	177 to 178 °C
COc1cccc(OC2CN([C@H]3CC[C@@H](c4cc5cc(C#N)ccc5[nH]4)CC3)C2)c1	126 to 127 °C
O[C@H](COc1cccc2[nH]ccc12)CN1CC=C(c2c[nH]c3cc(F)ccc23)CC1	95 to 100 °C

Please examine the following record next.
State the recorded melting point for this entry: COC(=O)C1Oc2ccccc2CC1CO (centres undefined)
84 to 85 °C

###

Listed below: melting point values for each entry.

See these solved cases before continuing.
Molecule	Measurement Name	Reported Measurement
CCOC(=O)c1cnc(Nc2ccc(OCC)cc2)[nH]c1=O	melting point	263 to 265 °C
CC(C)CC(NC(=O)OCc1ccccc1)C(=O)NC(Cc1ccc2ccccc2c1)C(=O)CSCc1ccco1 (stereo not given)	melting point	103 to 104 °C
CCC(=O)Oc1ccc(C(=O)c2ccccc2)cc1	melting point	53.5 to 54.5 °C
[N-]=[N+]=NCCCc1ccc(C(=O)O)s1	melting point	71 to 72 °C
O=[N+]([O-])c1ccc(F)cc1Nc1ccc(F)cc1	melting point	115 to 116 °C
COc1ccc2c(c1)C13CCN(C)C(C2)C1OC(C)(C)OC3 (stereo not given)	melting point	132 to 133 °C

State the recorded melting point for this entry: Cn1nc(-c2ccccc2C(F)(F)F)nc1-c1ccccc1Cl
90 to 92 °C

State the recorded melting point for this entry: O=C(Cc1csc(Nc2ccccc2)n1)NC1CCN(Cc2ccc(Cl)c(Cl)c2)CC1
191 to 192 °C

State the recorded melting point for this entry: c1ccc(Cn2nnc3ccc(Cn4ccnc4)cc32)cc1
85.4 °C

State the recorded melting point for this entry: CC(C(=O)O)N1CCC(C)(CS)C1=O (stereo not given)
132 to 133 °C

State the recorded melting point for this entry: Cc1ncc2cc(-c3c(Cl)cccc3Cl)c(N)nc2n1
287 to 289 °C

State the recorded melting point for this entry: Cc1ccc(C2=C(c3ccc(C)cc3)C(c3ccc(C)cc3)=C(c3ccc(C)cc3)C2=O)cc1
244 to 245 °C
